Test system: Mycobacterium tuberculosis variant bovis
Assay: Antimycobacterial activity against Mycobacterium bovis BCG ATCC 35734 assessed as inhibition of bacterial growth incubated for 5 days in 7H9 standard media by broth dilution method
Type: functional
Conditions: BCG ATCC 35734, 120 h, time 5 day
readout kind: MIC90

In: Give the measured MIC90 for O=C(NC1CCCCCCC1)c1cc2ccc(C(F)(F)F)cc2[se]1
Out: 1.8 µM

In: Give the measured MIC90 for Clc1ccc2[nH]c(CNC3CCCCCCC3)cc2c1
Out: 0.22 µM

In: Give the measured MIC90 for c1ccc2[se]c(CNC3CCCCCC3)cc2c1
Out: 5 µM

In: Give the measured MIC90 for O=C(NC1CCCCCCC1)c1cc2ccc(C(F)(F)F)cc2s1
Out: 0.4 µM

In: Give the measured MIC90 for O=C(NC1CCCCCC1)c1cc2ccccc2s1
Out: 3 µM

In: Give the measured MIC90 for c1ccc(COc2ccc3[nH]c(CNC4CCCCCCC4)cc3c2)cc1
Out: 0.31 µM

In: Give the measured MIC90 for O=C(NC1CCCCCCC1)c1cc2ccccc2s1
Out: 0.5 µM

In: Give the measured MIC90 for O=C(NC1CCCCCCC1)c1cc2ccc(Br)cc2[nH]1
Out: 0.06 µM

In: Give the measured MIC90 for Cc1cc(C)c2cc(CNC3CCCCCCC3)[nH]c2c1
Out: 0.25 µM

In: Give the measured MIC90 for O=C(NC1CCCCCCC1)c1cc2cc(F)ccc2[nH]1
Out: 0.61 µM

In: Give the measured MIC90 for Cc1cc(C)c2cc(C(=O)NC3CCCCCCC3)[nH]c2c1
Out: 0.04 µM

In: Give the measured MIC90 for c1ccc2[se]c(CNC3CCCCC3)cc2c1
Out: > 35 µM
